- assay_procedure: physchem
- Format: physicochemical
- condition_details: 37 °C, pH 6.8, aqueous buffer
experimental_endpoint: solubility (µg/mL)

>  <chemical_smiles>
CCCCc1ncc(/C=C(\Cc2cccs2)C(=O)O)n1Cc1ccc(C(=O)O)cc1

>  <readout_units>
µg/mL

>  <solubility>
1190

$$$$

A: CCCCC1=NC2(CCCC2)C(=O)N1Cc1ccc(-c2ccccc2-c2nnn[nH]2)cc1
B: Nc1nc2c(ncn2COCCO)c(=O)[nH]1
Query block: Returns the identifier with the smallest measured solubility among A and B . Write down the label of the entry you select.
Result block: A

###

- assay_procedure: physchem
- Type: physicochemical
- condition_details: 37 °C, pH 5.5, aqueous buffer
experimental_endpoint: solubility (µg/mL)

P: CCCCC1=NC2(CCCC2)C(=O)N1Cc1ccc(-c2ccccc2-c2nnn[nH]2)cc1 [Irbesartan]
Q: CCCCc1ncc(/C=C(\Cc2cccs2)C(=O)O)n1Cc1ccc(C(=O)O)cc1 [Eprosartan]
Query block: Sorting by solubility in descending order, would P or Q appear first? # answer = label of selected item
Result block: P
(P: 65 µg/mL, Q: 15 µg/mL)

meta.source: patent US20110159088A1
